Target: human GAL2 receptor (Homo sapiens)
Construct: expressed in transfected cells
Sequence (O43603 1-387): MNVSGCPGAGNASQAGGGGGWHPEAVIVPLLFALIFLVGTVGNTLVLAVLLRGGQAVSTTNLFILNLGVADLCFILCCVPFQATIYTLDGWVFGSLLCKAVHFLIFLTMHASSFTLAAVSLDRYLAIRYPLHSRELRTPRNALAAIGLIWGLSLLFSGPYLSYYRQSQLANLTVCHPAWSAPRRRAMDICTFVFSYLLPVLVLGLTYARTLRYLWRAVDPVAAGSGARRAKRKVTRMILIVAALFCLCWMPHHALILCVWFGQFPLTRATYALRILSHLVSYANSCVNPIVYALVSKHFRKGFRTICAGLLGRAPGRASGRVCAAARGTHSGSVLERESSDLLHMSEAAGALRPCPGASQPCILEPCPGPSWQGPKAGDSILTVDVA
Assay: Radioligand binding at cloned human GAL2 receptor
Conditions: pyrimidines, Tables 1-3, read-out: Ki (nM) GalR2
ENDPOINT_NAME: Ki (nM)
Numbers only, in nM.

Answer with Ki of N^2-[2-(1H-INDOL-3-YL)ETHYL]-N^2,N^4,N^4-TRIMETHYL-(2-NAPHTHYL)-6-(1-PIPERIDINYL)-2,4,6-PYRIMIDINETRIAMINE [Example 79] measured for human GAL2 receptor (Homo sapiens). 1660

Ref: patent US20040110821A1
